Tested on: B. subtilis 168;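 further: first quartile when negative (synergy) and third quartile when positive (antagonism)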
Test: Bliss interaction score (quartile over a dose matrix) (fitness difference); higher = more antagonism (negative = synergy)
Reported Property: Bliss interaction score

compound="O=C(O)c1cn(C2CC2)c2cc(N3CCNCC3)c(F)cc2c1=O [Ciprofloxacin] + Cn1nnc(-c2ccc(-c3ccc(N4C[C@H](CO)OC4=O)cc3F)cn2)n1 [Tedizolid]" measured_value=0.26
compound="CO/N=C(\\C(=O)N[C@@H]1C(=O)N2C(C(=O)O)=C(COC(C)=O)CS[C@H]12)c1csc(N)n1 [Cefotaxime] + C[C@@H](O)[C@H]1C(=O)N2C(C(=O)O)=C(SCCNC=N)C[C@H]12 [Imipenem]" measured_value=-0.116
compound="CO/N=C(\\C(=O)N[C@@H]1C(=O)N2C(C(=O)O)=C(COC(N)=O)CS[C@H]12)c1ccco1 [Cefuroxime] + CC[C@H]1OC(=O)[C@H](C)C(=O)[C@H](C)[C@@H](O[C@@H]2O[C@H](C)C[C@H](N(C)C)[C@H]2O)[C@](C)(OC)C[C@@H](C)C(=O)[C@H](C)[C@H]2N(CCCCn3cnc(-c4cccnc4)c3)C(=O)O[C@]12C [Telithromycin]" measured_value=0.0752
compound="CO/N=C(\\C(=O)N[C@@H]1C(=O)N2C(C(=O)O)=C(COC(C)=O)CS[C@H]12)c1csc(N)n1 [Cefotaxime] + COc1cccc2c1C(=O)c1c(O)c3c(c(O)c1C2=O)C[C@@](O)(C(=O)CO)C[C@@H]3O[C@H]1C[C@H](N)[C@H](O)[C@H](C)O1 [Doxorubicin]" measured_value=-0.17
compound="CN(C)c1cc(NC(=O)CNC(C)(C)C)c(O)c2c1C[C@H]1C[C@H]3[C@H](N(C)C)C(O)=C(C(N)=O)C(=O)[C@@]3(O)C(O)=C1C2=O [Tigecycline] + CN[C@H](CC(C)C)C(=O)N[C@H]1C(=O)N[C@@H](CC(N)=O)C(=O)N[C@H]2C(=O)N[C@H]3C(=O)N[C@H](C(=O)N[C@H](C(=O)O)c4cc(O)cc(O)c4-c4cc3ccc4O)[C@H](O)c3ccc(c(Cl)c3)Oc3cc2cc(c3O[C@@H]2O[C@H](CO)[C@@H](O)[C@H](O)[C@H]2O[C@H]2C[C@](C)(N)[C@H](O)[C@H](C)O2)Oc2ccc(cc2Cl)[C@H]1O [Vancomycin]" measured_value=0.0787

Every entry's value here was drawn from the supplement of paper PMC10627819.
